Origin of values: the supplement of paper PMC11061612

Quick list: combination Emax per entry.
# Tested on: KMOE-2 (Acute Myeloid Leukemia)
# EXPERIMENT: combination Emax (second highest fraction inhibited in the dose matrix, 72 h); higher = more inhibition; extreme values may be limits of the assay
Number only, no unit.

{"COMPOUND": "Cc1c2c(nn1C)CSCc1cc(n(C)n1)CSc1cc(c3ccccc3c1)OCCCc1c(C(=O)O)n(C)c3c-2c(Cl)ccc13 [AZD5991] + Cc1cc2ncnn2cc1Nc1ncc2c(n1)n(C1CCOCC1)c(=O)n2C [AZD7648] (first compound max 1 µM, 7x7, partner max 10 µM)", "combination Emax": 0.74}
{"COMPOUND": "COc1nnc2ccc(N3CCC(c4ccc(OCCN5CCN(C)C(=O)[C@H]5C)cc4)CC3)nn12 [AZD5153] + C[C@@H]1COCCN1C2=NC(=NC(=C2)C3(CC3)[S@](=N)(=O)C)C4=C5C=CNC5=NC=C4 [AZD6738] (first compound max 1 µM, 7x7, partner max 10 µM)", "combination Emax": 0.988}

Then this compound:
combination Emax lookup needed for CN(CCO)CC[C@H](CSc1ccccc1)Nc1ccc(S(=O)(=O)NC(=O)c2ccc(N3CCC([C@@H](O)c4ccccc4-c4ccc(Cl)cc4)CC3)cc2)cc1S(=O)(=O)C(F)(F)F [AZD4320] + Cc1cc2ncnn2cc1Nc1ncc2c(n1)n(C1CCOCC1)c(=O)n2C [AZD7648] (first compound max 1 µM, 7x7, partner max 10 µM) , thanks. 0.896

###

# Tested on: NCI-H358 (Lung Adenocarcinoma)
# EXPERIMENT: combination Emax (second highest fraction inhibited in the dose matrix, 72 h); higher = more inhibition; extreme values may be limits of the assay
# combination Emax per record follows
Lab note: jot down the number only; don't add units.

Use these answered entries as a reference point.
{"COMPOUND": "CC1(C)CCC(CN2CCN(c3ccc(C(=O)NS(=O)(=O)c4ccc(NCC5CCOCC5)c([N+](=O)[O-])c4)c(Oc4cnc5[nH]ccc5c4)c3)CC2)=C(c2ccc(Cl)cc2)C1 [Venetoclax] + C[C@@H](Nc1cc(F)cc(F)c1)c1cc(C(=O)N(C)C)cc2c(=O)cc(N3CCOCC3)oc12 [AZD8186] (first compound max 1 µM, 7x7, partner max 3 µM)", "ENDPOINT_NAME": "combination Emax", "ENDPOINT_VALUE": 0.149}
{"COMPOUND": "N#Cc1cnc(Nc2cc(NC[C@H]3CNCCO3)c(C(F)(F)F)cn2)cn1 [SRA737] + Nc1ccn([C@@H]2O[C@H](CO)[C@@H](O)C2(F)F)c(=O)n1 [Gemcitabine] (first compound max 10 µM, 7x7, partner max 0.3 µM)", "ENDPOINT_NAME": "combination Emax", "ENDPOINT_VALUE": 0.665}
{"COMPOUND": "CCc1c2c(nc3ccc(O)cc13)-c1cc3c(c(=O)n1C2)COC(=O)[C@]3(O)CC [SN-38] + CN(C)CCCOc1ccc(-c2ccc3ncc4c(c3c2)n(C2CCOCC2)c(=O)n4C)cn1 [AZD0156] (first compound max 0.3 µM, 7x7, partner max 1 µM)", "ENDPOINT_NAME": "combination Emax", "ENDPOINT_VALUE": 0.722}
{"COMPOUND": "CC1(C)CCC(CN2CCN(c3ccc(C(=O)NS(=O)(=O)c4ccc(NCC5CCOCC5)c([N+](=O)[O-])c4)c(Oc4cnc5[nH]ccc5c4)c3)CC2)=C(c2ccc(Cl)cc2)C1 [Venetoclax] + C1CN(CCC1(C(=O)N[C@@H](CCO)C2=CC=C(C=C2)Cl)N)C3=NC=NC4=C3C=CN4 [Capivasertib] (first compound max 1 µM, 7x7, partner max 3 µM)", "ENDPOINT_NAME": "combination Emax", "ENDPOINT_VALUE": 0.33}
{"COMPOUND": "Cc1c2c(nn1C)CSCc1cc(n(C)n1)CSc1cc(c3ccccc3c1)OCCCc1c(C(=O)O)n(C)c3c-2c(Cl)ccc13 [AZD5991] + CC1(C)CCC(CN2CCN(c3ccc(C(=O)NS(=O)(=O)c4ccc(NCC5CCOCC5)c([N+](=O)[O-])c4)c(Oc4cnc5[nH]ccc5c4)c3)CC2)=C(c2ccc(Cl)cc2)C1 [Venetoclax] (first compound max 1 µM, 7x7, partner max 1 µM)", "ENDPOINT_NAME": "combination Emax", "ENDPOINT_VALUE": 0.217}
{"COMPOUND": "Cn1cnc2c(F)c(Nc3ccc(Br)cc3Cl)c(C(=O)NOCCO)cc21 [Selumetinib] + CC(C)n1c(=O)n(C)c2cnc3cc(F)c(-c4ccc(OCCCN5CCCCC5)nc4)cc3c21 [AZD1390] (first compound max 10 µM, 7x7, partner max 0.3 µM)", "ENDPOINT_NAME": "combination Emax", "ENDPOINT_VALUE": 0.444}
{"COMPOUND": "CN(CCO)CC[C@H](CSc1ccccc1)Nc1ccc(S(=O)(=O)NC(=O)c2ccc(N3CCC([C@@H](O)c4ccccc4-c4ccc(Cl)cc4)CC3)cc2)cc1S(=O)(=O)C(F)(F)F [AZD4320] + Nc1ccn([C@@H]2O[C@H](CO)[C@@H](O)C2(F)F)c(=O)n1 [Gemcitabine] (first compound max 1 µM, 7x7, partner max 0.3 µM)", "ENDPOINT_NAME": "combination Emax", "ENDPOINT_VALUE": 0.396}
{"COMPOUND": "N#Cc1cnc(Nc2cc(NC[C@H]3CNCCO3)c(C(F)(F)F)cn2)cn1 [SRA737] + C=CCn1c(=O)c2cnc(Nc3ccc(N4CCN(C)CC4)cc3)nc2n1-c1cccc(C(C)(C)O)n1 [AZD1775] (first compound max 10 µM, partner max 1 µM)", "ENDPOINT_NAME": "combination Emax", "ENDPOINT_VALUE": 0.763}
{"COMPOUND": "Cc1c2c(nn1C)CSCc1cc(n(C)n1)CSc1cc(c3ccccc3c1)OCCCc1c(C(=O)O)n(C)c3c-2c(Cl)ccc13 [AZD5991] + C=CCn1c(=O)c2cnc(Nc3ccc(N4CCN(C)CC4)cc3)nc2n1-c1cccc(C(C)(C)O)n1 [AZD1775] (first compound max 1 µM, partner max 1 µM)", "ENDPOINT_NAME": "combination Emax", "ENDPOINT_VALUE": 0.649}
{"COMPOUND": "CN(CCO)CC[C@H](CSc1ccccc1)Nc1ccc(S(=O)(=O)NC(=O)c2ccc(N3CCC([C@@H](O)c4ccccc4-c4ccc(Cl)cc4)CC3)cc2)cc1S(=O)(=O)C(F)(F)F [AZD4320] + CN(C)CCCOc1ccc(-c2ccc3ncc4c(c3c2)n(C2CCOCC2)c(=O)n4C)cn1 [AZD0156] (first compound max 1 µM, 7x7, partner max 1 µM)", "ENDPOINT_NAME": "combination Emax", "ENDPOINT_VALUE": 0.217}

Endpoint output: combination Emax of COc1cccc(OCCCN)c1-c1cc(Nc2cnc(C#N)cn2)n[nH]1 [Prexasertib] + CCc1c2c(nc3ccc(O)cc13)-c1cc3c(c(=O)n1C2)COC(=O)[C@]3(O)CC [SN-38] (first compound max 1 µM, 7x7, partner max 0.3 µM) . Value? 0.897

Can you look up the measured combination Emax of CCc1c2c(nc3ccc(O)cc13)-c1cc3c(c(=O)n1C2)COC(=O)[C@]3(O)CC [SN-38] + O=C(c1cc(Cc2n[nH]c(=O)c3ccccc23)ccc1F)N1CCN(C(=O)C2CC2)CC1 [Olaparib] (first compound max 0.3 µM, 7x7, partner max 10 µM) for me? 0.693

Form field: reported combination Emax of O=C(c1cc(Cc2n[nH]c(=O)c3ccccc23)ccc1F)N1CCN(C(=O)C2CC2)CC1 [Olaparib] + CC1(C)CCC(CN2CCN(c3ccc(C(=O)NS(=O)(=O)c4ccc(NCC5CCOCC5)c([N+](=O)[O-])c4)c(Oc4cnc5[nH]ccc5c4)c3)CC2)=C(c2ccc(Cl)cc2)C1 [Venetoclax] (first compound max 10 µM, 7x7, partner max 1 µM) 0.133

Can you share its combination Emax? I mean this compound: CC(=O)c1c(C)c2cnc(Nc3ccc(N4CCNCC4)cn3)nc2n(C2CCCC2)c1=O [Palbociclib] + Cn1cnc2c(F)c(Nc3ccc(Br)cc3Cl)c(C(=O)NOCCO)cc21 [Selumetinib] (first compound max 10 µM, 7x7, partner max 10 µM) 0.524

For C=CCn1c(=O)c2cnc(Nc3ccc(N4CCN(C)CC4)cc3)nc2n1-c1cccc(C(C)(C)O)n1 [AZD1775] + O=C(c1cc(Cc2n[nH]c(=O)c3ccccc23)ccc1F)N1CCN(C(=O)C2CC2)CC1 [Olaparib] (first compound max 1 µM, partner max 10 µM) , what is its reported combination Emax? 0.447
